tested on: Mus musculus; assay: Phototoxicity in Swiss albino mouse assessed as ear thickness at 140 mg/kg, po after 72 hrs of irradiation; type: organism-based; parameters: dose 140 mg/kg, route oral; details: in vivo
Measured Activity values are reported for all entries that follow.
The figure you give is taken to be in mm; do not add the unit.

# annotated cases, reported Activity shown
MOLECULE	Activity (mm)
COc1c(N2CCN(Cc3ccc4c(c3)OCO4)CC2)c(F)c([N+](=O)[O-])c2c(=O)c(C(=O)O)cn(C3CC3)c12	0.33
CCn1cc(C(=O)O)c(=O)c2cc(F)c(N3CCNC(C)C3)c(F)c21 (stereo unspecified)	0.64
COc1ccc(CC2C3=C(CCCC3)CCN2c2c(F)c([N+](=O)[O-])c3c(=O)c(C(=O)O)cn(C4CC4)c3c2OC)cc1 (stereo unspecified)	0.33
COc1c(N2CC(C)OC(C)C2)c(F)c([N+](=O)[O-])c2c(=O)c(C(=O)O)cn(C3CC3)c12 (stereo unspecified)	0.34
COc1c(N2CCN(C(=O)C3COc4ccccc4O3)CC2)c(F)cc2c(=O)c(C(=O)O)cn(C3CC3)c12 (stereo unspecified)	0.33

Moving on to another molecule below.
Write down Activity measured for item CCN(CC)C(=O)C1CCCN(c2c(F)cc3c(=O)c(C(=O)O)cn(C4CC4)c3c2OC)C1 (stereo unspecified)
0.39

---

system: Mycobacterium tuberculosis; test: Antimycobacterial activity against Mycobacterium tuberculosis H37Rv by agar dilution method; type: functional
OUTCOME MEASURE: MIC (µM)
Response body: numeric value in µM, unit text excluded.

For orientation, consider the following solved cases.
COc1c(N2CCC(n3c(=O)[nH]c4cc(Cl)ccc43)CC2)c(F)cc2c(=O)c(C(=O)O)cn(C3CC3)c12 5.94
COc1c(N2CCC(n3c(=O)[nH]c4cc(Cl)ccc43)CC2)c(F)c([N+](=O)[O-])c2c(=O)c(C(=O)O)cn(C3CC3)c12 5.47

Okay, now this compound:
Answer with the recorded MIC of `COc1c(N2CCC3(CC2)OCCO3)c(F)cc2c(=O)c(C(=O)O)cn(C3CC3)c12` only.
0.93

---

system: Mus musculus; experiment: Phototoxicity in Swiss albino mouse assessed as ear thickness at 140 mg/kg, po after 48 hrs of irradiation; format: organism-based; set-up: dose 140 mg/kg, route oral; details: in vivo
Just a reminder that ties go to Criterion not met: only Activity strictly below 0.4 mm counts as Criterion met.

Previously resolved entries follow.
COMPOUND	LABEL
COc1c(N2CC(C)OC(C)C2)c(F)c([N+](=O)[O-])c2c(=O)c(C(=O)O)cn(C3CC3)c12 (stereo unspecified)	Criterion met
COc1c(N2CCN(C(=O)C3COc4ccccc4O3)CC2)c(F)cc2c(=O)c(C(=O)O)cn(C3CC3)c12 (stereo unspecified)	Criterion met
CCN(CC)C(=O)C1CCCN(c2c(F)cc3c(=O)c(C(=O)O)cn(C4CC4)c3c2OC)C1 (stereo unspecified)	Criterion met

Input COc1ccc(CC2C3=C(CCCC3)CCN2c2c(F)c([N+](=O)[O-])c3c(=O)c(C(=O)O)cn(C4CC4)c3c2OC)cc1 (stereo unspecified) ; condition: Activity strictly below 0.4 mm. Does it hold?
Criterion met

Threshold test, Activity < 0.4 mm: `COc1c(N2CCN(Cc3ccc4c(c3)OCO4)CC2)c(F)c([N+](=O)[O-])c2c(=O)c(C(=O)O)cn(C3CC3)c12`
Criterion met

Check if Activity falls below 0.4 mm for CCn1cc(C(=O)O)c(=O)c2cc(F)c(N3CCNC(C)C3)c(F)c21 (stereo unspecified) .
Criterion not met

---

system: Mus musculus; test: Phototoxicity in Swiss albino mouse assessed as erythema incidence at 140 mg/kg, po after 4 hrs of irradiation; assay type: organism-based; parameters: dose 140 mg/kg, route oral; settings: in vivo
OUTCOME MEASURE: Activity

MOLECULE	ASSAY RESULT
CCn1cc(C(=O)O)c(=O)c2cc(F)c(N3CCNC(C)C3)c(F)c21 (centres undefined)	Toxic
COc1c(N2CCN(C(=O)C3COc4ccccc4O3)CC2)c(F)cc2c(=O)c(C(=O)O)cn(C3CC3)c12 (centres undefined)	Non-toxic
COc1ccc(CC2C3=C(CCCC3)CCN2c2c(F)c([N+](=O)[O-])c3c(=O)c(C(=O)O)cn(C4CC4)c3c2OC)cc1 (centres undefined)	Non-toxic
COc1c(N2CCN(Cc3ccc4c(c3)OCO4)CC2)c(F)c([N+](=O)[O-])c2c(=O)c(C(=O)O)cn(C3CC3)c12	Non-toxic

---

test system: Mus musculus; assay: Phototoxicity in Swiss albino mouse assessed as erythema incidence at 140 mg/kg, po after 96 hrs of irradiation; format: organism-based; set-up: dose 140 mg/kg, route oral; conditions: in vivo
OUTCOME MEASURE: Activity

Previously resolved entries follow.
COMPOUND	Activity
CCn1cc(C(=O)O)c(=O)c2cc(F)c(N3CCNC(C)C3)c(F)c21 (stereo not given)	Toxic
COc1ccc(CC2C3=C(CCCC3)CCN2c2c(F)c([N+](=O)[O-])c3c(=O)c(C(=O)O)cn(C4CC4)c3c2OC)cc1 (stereo not given)	Non-toxic
CCN(CC)C(=O)C1CCCN(c2c(F)cc3c(=O)c(C(=O)O)cn(C4CC4)c3c2OC)C1 (stereo not given)	Non-toxic
COc1c(N2CC(C)OC(C)C2)c(F)c([N+](=O)[O-])c2c(=O)c(C(=O)O)cn(C3CC3)c12 (stereo not given)	Non-toxic

Moving on to another compound below.
// Input: COc1c(N2CCN(C(=O)C3COc4ccccc4O3)CC2)c(F)cc2c(=O)c(C(=O)O)cn(C3CC3)c12 (stereo not given) . Output its Activity only.
Non-toxic

---

target: DNA gyrase subunit B (Mycobacterium smegmatis (strain ATCC 700084 / mc(2)155)); assay: Inhibition of Mycobacterium smegmatis MC2 DNA gyrase GyrB ATPase supercoiling activity; set-up: species or system Mycolicibacterium smegmatis
Sequence (A0QNE0 whole entry): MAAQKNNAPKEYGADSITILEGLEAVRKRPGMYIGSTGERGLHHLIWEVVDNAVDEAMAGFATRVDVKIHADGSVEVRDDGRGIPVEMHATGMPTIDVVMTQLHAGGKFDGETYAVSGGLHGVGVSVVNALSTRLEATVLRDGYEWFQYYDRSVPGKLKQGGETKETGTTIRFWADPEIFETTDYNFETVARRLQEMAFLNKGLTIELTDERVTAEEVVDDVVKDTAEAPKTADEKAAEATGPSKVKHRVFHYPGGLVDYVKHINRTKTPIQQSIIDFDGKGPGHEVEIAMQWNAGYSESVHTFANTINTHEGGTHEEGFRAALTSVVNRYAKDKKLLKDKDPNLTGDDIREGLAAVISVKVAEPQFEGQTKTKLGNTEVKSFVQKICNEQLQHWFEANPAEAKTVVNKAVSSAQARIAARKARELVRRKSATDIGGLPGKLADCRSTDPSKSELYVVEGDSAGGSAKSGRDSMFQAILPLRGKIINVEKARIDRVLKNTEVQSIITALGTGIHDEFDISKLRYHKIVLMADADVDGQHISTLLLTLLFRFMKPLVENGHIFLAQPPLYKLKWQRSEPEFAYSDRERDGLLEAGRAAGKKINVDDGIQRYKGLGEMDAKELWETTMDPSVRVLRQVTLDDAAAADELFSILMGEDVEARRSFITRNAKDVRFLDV
pIC50: −log10 of the molar value.
OUTCOME MEASURE: pIC50

Solved cases below.
COMPOUND	ASSAY RESULT
COc1c(N2CCN(Cc3ccc4c(c3)OCO4)CC2)c(F)cc2c(=O)c(C(=O)O)cn(C3CC3)c12	< 4.00
COc1c(N2CCSCC2)c(F)c([N+](=O)[O-])c2c(=O)c(C(=O)O)cn(C3CC3)c12	< 3.93
CCN(CC)C(=O)C1CCCN(c2c(F)cc3c(=O)c(C(=O)O)cn(C4CC4)c3c2OC)C1 (stereo unspecified)	< 3.96
COc1c(N2CCC3(CC2)OCCO3)c(F)cc2c(=O)c(C(=O)O)cn(C3CC3)c12	< 3.92
COc1c(N2CCN(C(=O)C3COc4ccccc4O3)CC2)c(F)c([N+](=O)[O-])c2c(=O)c(C(=O)O)cn(C3CC3)c12 (stereo unspecified)	< 4.06

Below: the item to evaluate.
Specify reported pIC50 for the compound shown: COc1c(N2CCc3ccccc3C2C(=O)NC(C)(C)C)c(F)c([N+](=O)[O-])c2c(=O)c(C(=O)O)cn(C3CC3)c12 (stereo unspecified)
< 4.04
